assay.target: CDK2/cyclin A (Homo sapiens, UniProt P24941)
Construct: purchased Eurofins Scientific
experimental.protocol: CDK protein inhibition, KINOMEscan (Eurofins), CDK2/cyclin A
Type: binding
test.settings: Table 17, unit inferred
Give measured pIC50 for each item. Keep answers brief.
Schema: pIC50 number; meaning minus log10 of the concentration expressed in molar units.

Using known records, supply pIC50 for O=C1CCC(N2C(=O)c3cccc(NCC(=O)N4CCC(CN5CCN(c6ccc(Nc7ncnc8c7ncn8[C@H]7C[C@@H](NC(=O)Cc8ccccc8)C7)cc6)CC5)CC4)c3C2=O)C(=O)N1 (stereo partly shown) 6.36

Using known records, supply pIC50 for Cc1cccc(C(=O)N[C@H]2C[C@@H](n3cnc4c(Nc5ccc(N6CCN(CC7CCN(C(=O)COc8cccc9c8C(=O)N(C8CCC(=O)NC8=O)C9=O)CC7)CC6)cc5)ncnc43)C2)n1 (stereo partly shown) 6.21

Using known records, supply pIC50 for Cc1cccc(C(=O)N[C@H]2C[C@@H](n3cnc4c(NCCC5CCN(CC6CCN(C(=O)CNc7ccc8c(c7)C(=O)N(C7CCC(=O)NC7=O)C8=O)CC6)CC5)ncnc43)C2)n1 (stereo partly shown) 5.89
